system: 926638-142-R-J1-PDC complex spheroid viability; assay: Anticancer human tumor 926638-142-R-J1-PDC patient-derived endometrial carcinoma cell line growth inhibition [POLQ]; conditions: curve of first compound; second compound 10 µM;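 note: spheroids exposed to drugs for one week before readout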
pIC50: −log10 of the molar value.
reportedEndpoint: pIC50

compound	reportedEndpoint	resultOperator	quantitativeResult
COc1cccc2c1C(=O)c1c(O)c3c(c(O)c1C2=O)CC(O)(C(=O)CO)CC3OC1CC(N)C(O)C(C)O1 (stereo not drawn) + COC1C(OC(N)=O)C(O)C(Oc2ccc3c(O)c(NC(=O)c4ccc(O)c(CC=C(C)C)c4)c(=O)oc3c2C)OC1(C)C	pIC50	=	6.81
O=C(c1cc(Cc2n[nH]c(=O)c3ccccc23)ccc1F)N1CCN(C(=O)C2CC2)CC1 + COC1C(OC(N)=O)C(O)C(Oc2ccc3c(O)c(NC(=O)c4ccc(O)c(CC=C(C)C)c4)c(=O)oc3c2C)OC1(C)C	pIC50	<	5.00
Nc1ccn(C2OC(CO)C(O)C2(F)F)c(=O)n1 (stereo not drawn) + Nc1ccc(C#CCN(C(=O)Cc2ncc(C(F)(F)F)cc2C(F)(F)F)c2ccc(F)cc2)nn1	pIC50	=	5.62
